Test system: CCRIS mutagenicity, Ames/micronucleus/aberration tests
Assay: CCRIS mutagenicity studies
Settings: Test System: AMES SALMONELLA TYPHIMURIUM; Strain/Indicator: TA98(1,8-DNP6); Metabolic Activation: NONE; Method: STANDARD PLATE
Activity calls are given as the source filed them. No rule for the calls is given here.
Assign a class; possible classes are true (active), false (inactive)

Consider the worked cases shown below.
query-smiles | group-label
O=[N+]([O-])c1ccc2c(c1)CCc1ccccc1-2 | true
N#Cc1cccc(/C=C/c2ccc(N)cc2)c1 | false
Cn1c(N=[N+]=[N-])nc2ccc3ncccc3c21 | true
O=C1c2ccccc2-c2ccc([N+](=O)[O-])cc21 | true
O=[N+]([O-])c1ccc2c3c(cccc13)-c1cc(O)ccc1-2 | false

Dear all, I need the recorded test outcome for O=[N+]([O-])c1cc(O)c2ccc3cccc4ccc1c2c34 , thank you.
true

Dear all, I need the recorded test outcome for CC(=O)Nc1ccc2ccc3cccc4ccc1c2c34 , thank you.
false

Dear all, I need the recorded test outcome for Nc1ccc(-c2ccc(N)c([N+](=O)[O-])c2)cc1[N+](=O)[O-] , thank you.
false

Dear all, I need the recorded test outcome for O=[N+]([O-])c1cc2ccccc2c2ccccc12 , thank you.
true

Dear all, I need the recorded test outcome for O=[N+]([O-])c1cc2ccccc2c2c([N+](=O)[O-])cccc12 , thank you.
true

Dear all, I need the recorded test outcome for Nc1ccc(-c2ccc(N)c(Cl)c2)cc1Cl , thank you.
true

Dear all, I need the recorded test outcome for O=[N+]([O-])c1ccc2c(c1)cc([N+](=O)[O-])c1ccccc12 , thank you.
true

All figures here come from PubChem BioAssay AID1259407.
